Test system: HL-60
Assay: NCI tumour cell line growth inhibition, 48 h
Calls of active or inactive are those of the source. Rule as the data show it: active = GI50 up to about 1.1 µM and inactive = higher.
quantity-name: GI50

// known answers, use as guide
# compound, assayed-target, GI50
measured = [
    ("C1CN2CCN3CCN4CCN1[PH]243", "HL-60", "> 100 µM (inactive)"),
    ("COc1cc(CCc2ccc(OCCN(C)C)cc2)cc(OC)c1OC", "HL-60", "33.7 µM (inactive)"),
    ("CCOC(=O)c1cnccc1CC1(C#N)c2ccccc2C=CN1C(=O)c1ccccc1 (configuration not stated)", "HL-60", "18.5 µM (inactive)"),
    ("CNC(C#N)c1ccc(OC)cc1 (configuration not stated)", "HL-60", "28.6 µM (inactive)"),
    ("O=CC1CCC=CC1NC(=O)OCc1ccccc1 (configuration not stated)", "HL-60", "7.14 µM (inactive)"),
]

Please give GI50, item by item, for the list that follows.
1. CC(C)CC1c2[nH]c3ccccc3c2C[C@H]2C(=O)NC(Cc3c[nH]c4ccccc34)C(=O)N12 (some centres not stated)
2. CCOC(=O)NC(Nc1c(F)c(F)c(F)c(F)c1F)(C(F)(F)F)C(F)(F)F
3. Cn1ccc(C(=O)N2CCSC2=S)c(OCc2ccccc2)c1=O

Ans:
["11.8 µM (inactive)", "> 100 µM (inactive)", "54.8 µM (inactive)"]

Please give GI50, item by item, for the list that follows.
1. CCOC(=O)c1sc2nc(SC)nc(Nc3ccc4c(c3)OCCCO4)c2c1N
2. Cc1c2ccccc2c(C)n2c1nc1cc3ccccc3cc12
3. O=C(Cn1ccnc1[N+](=O)[O-])NCc1ccc(F)cc1
4. CCCCCC(=O)OCC(=O)[C@H]1[C@H](C)C[C@H]2[C@@H]3C[C@H](F)C4=C/C(=N/OC(=O)c5cccc6c(=O)c7ccccc7[nH]c56)C=C[C@]4(C)[C@H]3[C@@H](O)C[C@@]21C

Ans:
1: > 100 µM (inactive); 2: 2.5 µM (inactive); 3: > 100 µM (inactive); 4: > 100 µM (inactive)

----------
System: HT-29
Assay: NCI tumour cell line growth inhibition, 48 h
Activity calls are given as the source filed them. Rule as the data show it: active = GI50 up to about 1.1 µM and inactive = higher.
Give measured GI50 for each item. Keep answers brief.

// known answers, use as guide
# compound, quantity-name, measured-value
records = [
    ("CN(C)/C=C(\\C(=O)c1ccccc1)n1nc(-c2ccccc2)cc1-c1ccccc1", "GI50", "> 10 µM (inactive)"),
    ("O=C(/N=N/c1ccc(Br)cc1)NNc1ccc(Br)cc1", "GI50", "17.4 µM (inactive)"),
    ("COc1cc(C2c3[nH]c4ccc(F)cc4c3C[C@H]3COC(=O)N23)cc(OC)c1O (stereo partly drawn)", "GI50", "7.55 µM (inactive)"),
]

Please give GI50, item by item, for the list that follows.
1. O=C1c2ccccc2S(=O)(=O)c2cc(-c3nn[nH]n3)ccc21 [DOXANTRAZOLE]
2. CCOc1ccc(NC(=O)C2=C(C)NC(C)=C(C(=O)Nc3ccc(OCC)cc3)C2c2ccc(O)c(OC)c2)cc1
3. CC1=C(C(=O)CC(=O)C(=O)Nc2ccccc2)Sc2ccccc2N1
4. C=CCC1C(=O)Nc2cccc3ncn(c23)C1=O (stereo not drawn)

Ans:
["> 100 µM (inactive)", "> 100 µM (inactive)", "> 100 µM (inactive)", "> 100 µM (inactive)"]

Q: Observed GI50 on HT-29 for CCOC1CN=C(Nc2cccc3ccccc23)S1 (stereo not drawn) , please.
Ans: > 10 µM (inactive)
